# Target Of Assay: Histone deacetylase
# Assay Procedure: Inhibition of HDAC in human HeLa cell nuclear extracts using Color de LysTM after 30 mins
# Type: protein assay
Listing of recorded IC50 by entry.
// note: answer is a bare numeric in µM

| Molecule Smiles | Target Of Assay | Unit Of Measurement | IC50 |
| --- | --- | --- | --- |
| COc1cc(/C=C/C(=O)Nc2ccccc2N)ccc1OCC(=O)Nc1ccc(Cl)c(Cl)c1 | Histone deacetylase | µM | 10.3 |
| COc1ccc(NC(=O)COc2ccc(/C=C/C(=O)NO)cc2OC)cc1 | Histone deacetylase | µM | 10.8 |
| COc1ccc(NC(=O)COc2ccc(/C=C/C(=O)Nc3ccc(C)cc3N)cc2OC)cc1 | Histone deacetylase | µM | 118 |
| COc1cc(/C=C/C(=O)Nc2ccc(C)cc2N)ccc1OCC(=O)Nc1ccc(Cl)c(Cl)c1 | Histone deacetylase | µM | 64.5 |
| COc1cc(/C=C/C(=O)NO)ccc1OCC(=O)Nc1ccc(Br)cc1 | Histone deacetylase | µM | 8.43 |

Which IC50 reading was recorded for the molecule COc1cc(/C=C/C(=O)Nc2ccccc2N)ccc1OCC(=O)Nc1ccc(F)c(Cl)c1 ?
11.5

Item under review: COc1cc(/C=C/C(=O)NO)ccc1OCC(=O)Nc1cc(Br)cc(C(F)(F)F)c1 . Reported IC50?
67.8

What IC50 value was documented for this molecule, COc1cc(/C=C/C(=O)NO)ccc1OCC(=O)Nc1ccc(Cl)c(Cl)c1 ?
43

What does the record list as IC50 for COc1cc(/C=C/C(=O)Nc2ccccc2N)ccc1OCC(=O)Nc1cc(Br)cc(C(F)(F)F)c1 ?
24.2

What IC50 value was documented for this molecule, COc1cc(/C=C/C(=O)Nc2ccccc2N)ccc1OCC(=O)Nc1ccc(Br)cc1 ?
12.8

* * *

# Target Of Assay: Histone deacetylase
# Assay Procedure: Inhibition of HDAC in human HeLa cell nuclear extracts using Color de LysTM after 30 mins
# Type: protein assay
Threshold-based label: IC50 under 50 µM gives class 1, IC50 not under 50 µM gives class 0.

As a guide, the following entries are already answered.
| Molecule Smiles | Answer Label |
| --- | --- |
| COc1cc(/C=C/C(=O)Nc2ccccc2N)ccc1OCC(=O)Nc1cc(C(F)(F)F)cc(C(F)(F)F)c1 | class 1 |
| COc1cc(/C=C/C(=O)Nc2ccc(C)cc2N)ccc1OCC(=O)Nc1cccc(F)c1 | class 0 |
| COc1cc(/C=C/C(=O)NO)ccc1OCC(=O)Nc1cc(C(F)(F)F)cc(C(F)(F)F)c1 | class 1 |

In the record for COc1cc(/C=C/C(=O)Nc2ccccc2N)ccc1OCC(=O)Nc1ccccc1F , is IC50 less than 50 µM?
class 0

* * *

# Target Of Assay: Histone deacetylase
# Assay Procedure: Inhibition of HDAC in human HeLa cell nuclear extracts using Color de LysTM after 30 mins
# Assay type: protein assay
Here, each record is paired with measured IC50 data.

| Molecule Smiles | IC50 |
| --- | --- |
| COc1cc(/C=C/C(=O)Nc2ccc(C)cc2N)ccc1OCC(=O)Nc1cccc(C(F)(F)F)c1 | 15.1 µM |

Endpoint output: IC50 of COc1ccc(NC(=O)COc2ccc(/C=C/C(=O)Nc3ccccc3N)cc2OC)cc1 . Value?
8.95 µM

Reported IC50, compound COc1cc(/C=C/C(=O)Nc2ccccc2N)ccc1OCC(=O)Nc1cccc(C(F)(F)F)c1 : ____
49.6 µM

Find the recorded IC50 belonging to COc1cc(/C=C/C(=O)Nc2ccc(C)cc2N)ccc1OCC(=O)Nc1ccc(Br)cc1 and report it.
16.4 µM

Entry COc1cc(/C=C/C(=O)Nc2ccc(C)cc2N)ccc1OCC(=O)Nc1cc(Br)cc(C(F)(F)F)c1 : reported IC50 = ?
7.43 µM

Query (compound): COc1cc(/C=C/C(=O)NO)ccc1OCC(=O)Nc1cccc(F)c1 ; field requested: IC50
9.47 µM

Given COc1cc(/C=C/C(=O)NO)ccc1OCC(=O)Nc1cccc(C(F)(F)F)c1 , state its recorded IC50.
12.5 µM

What value of IC50 has been reported for the following compound? COc1cc(/C=C/C(=O)Nc2ccc(C)cc2N)ccc1OCC(=O)Nc1cc(C(F)(F)F)cc(C(F)(F)F)c1
71.4 µM

Would you kindly share the measured IC50 for COc1cc(/C=C/C(=O)Nc2ccccc2N)ccc1OCC(=O)Nc1cccc(F)c1 ?
2.82 µM

* * *

# Target Of Assay: Histone deacetylase
# Assay Procedure: Inhibition of HDAC in human HeLa cell nuclear extracts using Color de LysTM after 30 mins
# Format: protein assay
Measured Attribute: IC50
Answers without a unit are incomplete; give the number and then its unit.

| Molecule Smiles | Measured Attribute | Test Value |
| --- | --- | --- |
| COc1cc(/C=C/C(=O)Nc2ccc(C)cc2N)ccc1OCC(=O)Nc1ccccc1F | IC50 | 11.6 µM |
| COc1cc(/C=C/C(=O)Nc2ccc(C)cc2N)ccc1OCC(=O)Nc1ccc(F)c(Cl)c1 | IC50 | 15.4 µM |

// moving on: another record for IC50
Field request: IC50 | item: COc1cc(/C=C/C(=O)NO)ccc1OCC(=O)Nc1ccccc1F
3.94 µM
